target: SpCas9 (Streptococcus pyogenes serotype M1); experiment: eGFP disruption assay, SpCas9, U2OS.eGFP.PEST cells; assay type: cell-based
Sequence (Q99ZW2 whole entry): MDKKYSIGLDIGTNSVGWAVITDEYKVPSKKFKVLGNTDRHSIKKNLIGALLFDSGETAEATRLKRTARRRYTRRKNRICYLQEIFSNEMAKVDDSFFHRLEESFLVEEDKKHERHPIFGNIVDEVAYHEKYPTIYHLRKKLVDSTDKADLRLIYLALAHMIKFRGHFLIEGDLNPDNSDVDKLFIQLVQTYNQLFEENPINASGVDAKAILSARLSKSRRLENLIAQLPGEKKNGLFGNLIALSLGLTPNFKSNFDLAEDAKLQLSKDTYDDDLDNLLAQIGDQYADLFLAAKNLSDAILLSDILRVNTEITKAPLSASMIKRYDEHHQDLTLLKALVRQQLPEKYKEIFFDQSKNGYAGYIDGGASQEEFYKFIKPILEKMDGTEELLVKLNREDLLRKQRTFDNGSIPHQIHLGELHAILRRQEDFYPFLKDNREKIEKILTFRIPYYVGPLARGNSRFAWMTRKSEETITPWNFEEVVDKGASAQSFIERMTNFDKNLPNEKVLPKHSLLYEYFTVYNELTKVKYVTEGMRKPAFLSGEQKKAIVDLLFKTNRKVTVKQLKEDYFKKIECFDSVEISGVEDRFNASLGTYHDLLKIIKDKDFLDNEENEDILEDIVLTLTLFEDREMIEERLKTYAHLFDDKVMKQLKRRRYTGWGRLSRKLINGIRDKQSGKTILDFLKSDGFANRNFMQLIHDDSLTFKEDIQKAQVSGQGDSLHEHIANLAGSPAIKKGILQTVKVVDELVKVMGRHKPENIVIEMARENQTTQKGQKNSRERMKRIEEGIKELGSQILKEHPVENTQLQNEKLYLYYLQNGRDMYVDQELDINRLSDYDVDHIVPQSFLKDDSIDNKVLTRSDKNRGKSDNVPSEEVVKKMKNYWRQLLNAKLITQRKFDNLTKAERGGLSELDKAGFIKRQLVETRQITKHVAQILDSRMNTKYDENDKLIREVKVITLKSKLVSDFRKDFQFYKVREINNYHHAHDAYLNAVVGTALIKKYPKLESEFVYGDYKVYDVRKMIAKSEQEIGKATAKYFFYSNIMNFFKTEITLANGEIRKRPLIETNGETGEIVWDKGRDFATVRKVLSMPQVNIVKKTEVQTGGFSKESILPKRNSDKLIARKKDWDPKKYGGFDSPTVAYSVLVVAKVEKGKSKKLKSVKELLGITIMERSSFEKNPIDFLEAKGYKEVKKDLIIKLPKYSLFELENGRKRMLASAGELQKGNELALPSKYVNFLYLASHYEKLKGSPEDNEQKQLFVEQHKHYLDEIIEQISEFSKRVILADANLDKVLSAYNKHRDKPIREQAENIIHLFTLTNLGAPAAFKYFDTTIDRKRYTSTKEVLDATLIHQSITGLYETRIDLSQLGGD
In this section, each of the compounds is paired with its reported eGFP disruption-% inhibition.
// note: answer is a bare numeric in %

The following compounds have reported results that may help.
[
  {
    "SMILES_NOTATION": "COc1ccc(Cc2nn3c(-c4cccnc4)nnc3s2)cc1OC",
    "ASSAY_SYSTEM": "SpCas9 (Streptococcus pyogenes serotype M1)",
    "TEST_READOUT": "eGFP disruption-% inhibition",
    "REPORTED_VALUE": 24.03
  },
  {
    "SMILES_NOTATION": "c1ccc(-c2nnc3sc(-c4cc5ccccc5o4)nn23)nc1",
    "ASSAY_SYSTEM": "SpCas9 (Streptococcus pyogenes serotype M1)",
    "TEST_READOUT": "eGFP disruption-% inhibition",
    "REPORTED_VALUE": 18.61
  },
  {
    "SMILES_NOTATION": "Cc1nc2ccccc2c(C)c1CC(=O)N1CCN(c2ccc(O)cc2)CC1",
    "ASSAY_SYSTEM": "SpCas9 (Streptococcus pyogenes serotype M1)",
    "TEST_READOUT": "eGFP disruption-% inhibition",
    "REPORTED_VALUE": 24.48
  }
]

Give its eGFP disruption-% inhibition value. Item: O=C(CCS(=O)(=O)c1ccc(Cl)cc1)Nc1nc(-c2ccncc2)cs1
56.65

Give its eGFP disruption-% inhibition value. Item: COc1ccc(Cc2nnc3sc(Cc4ccc(OC)c(OC)c4)nn23)cc1
25.03

----------
Biological target: SaCas9 (Staphylococcus aureus, UniProt J7RUA5)
Sequence (J7RUA5 1-1053): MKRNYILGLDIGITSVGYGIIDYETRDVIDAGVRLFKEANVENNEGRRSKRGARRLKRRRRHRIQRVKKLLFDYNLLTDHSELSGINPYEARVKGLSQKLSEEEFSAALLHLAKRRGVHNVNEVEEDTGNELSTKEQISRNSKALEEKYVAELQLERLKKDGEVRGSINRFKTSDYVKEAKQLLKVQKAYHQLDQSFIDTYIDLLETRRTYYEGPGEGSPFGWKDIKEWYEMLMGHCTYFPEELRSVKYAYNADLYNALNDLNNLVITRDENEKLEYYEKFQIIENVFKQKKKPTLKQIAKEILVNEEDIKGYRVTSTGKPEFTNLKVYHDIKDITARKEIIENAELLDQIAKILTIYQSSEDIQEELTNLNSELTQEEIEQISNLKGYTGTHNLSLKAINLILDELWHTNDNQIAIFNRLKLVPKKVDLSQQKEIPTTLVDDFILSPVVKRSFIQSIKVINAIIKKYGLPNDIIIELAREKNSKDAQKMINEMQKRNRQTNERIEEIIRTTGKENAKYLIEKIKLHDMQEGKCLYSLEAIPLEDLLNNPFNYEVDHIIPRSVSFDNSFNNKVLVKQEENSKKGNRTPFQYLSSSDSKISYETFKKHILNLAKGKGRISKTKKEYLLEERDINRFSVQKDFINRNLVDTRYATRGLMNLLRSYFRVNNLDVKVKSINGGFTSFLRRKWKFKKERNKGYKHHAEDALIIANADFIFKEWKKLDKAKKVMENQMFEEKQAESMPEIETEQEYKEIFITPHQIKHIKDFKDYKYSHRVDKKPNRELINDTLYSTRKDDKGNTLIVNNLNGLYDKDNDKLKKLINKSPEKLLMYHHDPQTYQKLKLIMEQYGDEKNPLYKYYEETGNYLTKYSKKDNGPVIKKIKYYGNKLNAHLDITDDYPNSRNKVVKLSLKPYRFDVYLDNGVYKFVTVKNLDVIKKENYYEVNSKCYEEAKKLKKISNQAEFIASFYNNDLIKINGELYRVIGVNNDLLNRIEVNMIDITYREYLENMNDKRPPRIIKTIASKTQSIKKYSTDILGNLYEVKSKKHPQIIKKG
Assay: Strand displacement assay, SaCas9 primary screen
Format: biochemical
Settings: SaCas9 primary screen, weaker potential hits, replicate 1
// label = yes (1) if Normalized Zscore Rep 1 is not less than 0.2, otherwise no (0)

[
  {
    "SMILES_NOTATION": "CCS(=O)(=O)Nc1cnc(N(CC(C)C)CC(C)C)c(C(=O)O)c1",
    "ASSAY_SYSTEM": "SaCas9 (Staphylococcus aureus, UniProt J7RUA5)",
    "CAT": "yes (1)"
  },
  {
    "SMILES_NOTATION": "COCCCNC(=O)CN1CCN(c2ccc(C(=O)O)cc2NC(=O)c2ccccc2Cl)CC1",
    "ASSAY_SYSTEM": "SaCas9 (Staphylococcus aureus, UniProt J7RUA5)",
    "CAT": "no (0)"
  },
  {
    "SMILES_NOTATION": "O=C(O)c1cc(NS(=O)(=O)c2ccc3c(c2)CCCC3)cnc1N1CCCC1",
    "ASSAY_SYSTEM": "SaCas9 (Staphylococcus aureus, UniProt J7RUA5)",
    "CAT": "yes (1)"
  },
  {
    "SMILES_NOTATION": "O=C1c2cccc3cccc(c23)N1S(=O)(=O)c1cccs1",
    "ASSAY_SYSTEM": "SaCas9 (Staphylococcus aureus, UniProt J7RUA5)",
    "CAT": "no (0)"
  }
]

Say whether c1ccc(CCCNc2nn3nnnc3c3ccccc23)cc1 shows Normalized Zscore Rep 1 of 0.2 or more.
yes (1)
